The reported measurements were obtained from patent US20140058103A1.

Give measured IC50 for each item. Keep answers brief.
- target_of_assay: PI3K delta (Homo sapiens)
- Sequence (O00329 whole entry): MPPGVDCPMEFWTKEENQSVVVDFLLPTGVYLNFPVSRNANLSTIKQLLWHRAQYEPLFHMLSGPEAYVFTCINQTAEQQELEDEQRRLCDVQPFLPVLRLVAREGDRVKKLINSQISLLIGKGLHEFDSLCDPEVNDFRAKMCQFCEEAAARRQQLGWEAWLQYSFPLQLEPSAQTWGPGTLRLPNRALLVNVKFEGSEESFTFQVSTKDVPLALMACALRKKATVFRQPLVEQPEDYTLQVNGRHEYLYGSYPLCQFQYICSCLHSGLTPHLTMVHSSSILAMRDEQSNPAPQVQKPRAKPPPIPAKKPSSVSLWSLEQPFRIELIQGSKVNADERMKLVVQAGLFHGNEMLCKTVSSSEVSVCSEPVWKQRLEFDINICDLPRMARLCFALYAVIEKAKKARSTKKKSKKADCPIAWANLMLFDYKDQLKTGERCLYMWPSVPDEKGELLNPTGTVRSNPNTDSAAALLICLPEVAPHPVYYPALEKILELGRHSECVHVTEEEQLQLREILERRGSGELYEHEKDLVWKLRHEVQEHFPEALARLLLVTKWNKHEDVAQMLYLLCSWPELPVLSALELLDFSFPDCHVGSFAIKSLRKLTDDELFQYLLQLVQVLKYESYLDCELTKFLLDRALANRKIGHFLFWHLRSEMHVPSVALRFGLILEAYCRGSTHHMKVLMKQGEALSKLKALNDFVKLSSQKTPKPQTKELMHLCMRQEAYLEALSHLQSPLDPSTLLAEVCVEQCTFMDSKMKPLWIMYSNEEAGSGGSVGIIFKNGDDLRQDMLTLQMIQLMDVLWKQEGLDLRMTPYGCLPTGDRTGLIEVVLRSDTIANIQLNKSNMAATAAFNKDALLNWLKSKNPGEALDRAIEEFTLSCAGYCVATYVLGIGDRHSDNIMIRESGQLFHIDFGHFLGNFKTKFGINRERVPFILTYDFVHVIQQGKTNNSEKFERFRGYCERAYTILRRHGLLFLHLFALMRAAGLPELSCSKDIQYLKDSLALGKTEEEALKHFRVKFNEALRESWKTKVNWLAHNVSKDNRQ
- Sequence (P27986 whole entry partner): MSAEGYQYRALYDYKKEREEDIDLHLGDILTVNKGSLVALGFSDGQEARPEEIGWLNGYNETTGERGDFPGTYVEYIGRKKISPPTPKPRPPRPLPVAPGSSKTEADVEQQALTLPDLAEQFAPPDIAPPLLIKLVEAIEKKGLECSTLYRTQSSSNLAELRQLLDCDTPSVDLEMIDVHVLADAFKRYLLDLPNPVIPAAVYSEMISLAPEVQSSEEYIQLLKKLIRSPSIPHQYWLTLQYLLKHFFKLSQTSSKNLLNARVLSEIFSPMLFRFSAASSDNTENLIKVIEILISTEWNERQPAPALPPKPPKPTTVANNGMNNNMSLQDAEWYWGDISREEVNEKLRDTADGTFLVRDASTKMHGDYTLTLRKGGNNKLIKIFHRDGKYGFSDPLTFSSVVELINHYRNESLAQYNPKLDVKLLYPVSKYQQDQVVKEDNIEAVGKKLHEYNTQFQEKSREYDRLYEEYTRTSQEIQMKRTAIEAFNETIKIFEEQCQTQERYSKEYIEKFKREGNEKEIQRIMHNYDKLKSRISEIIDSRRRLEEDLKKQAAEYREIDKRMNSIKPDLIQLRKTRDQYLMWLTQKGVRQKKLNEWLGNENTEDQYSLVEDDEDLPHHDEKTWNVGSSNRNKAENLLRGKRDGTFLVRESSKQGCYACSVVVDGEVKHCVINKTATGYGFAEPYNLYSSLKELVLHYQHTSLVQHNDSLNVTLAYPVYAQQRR
- experiment_description: Luciferase-coupled chemiluminescence kinase assay (ATP consumption, KinaseGlo)

-- ask IC50 for CCn1c(-c2cnc(C)nc2)nc2c(N3CCC(n4c(=O)[nH]c5ccccc54)CC3)ncnc21 [Compound 342] ?
-- reply < 50 nM

-- ask Same lookup for Cn1cc(-c2nc3c(N4CCC(n5c(=O)[nH]c6ncccc65)CC4)ncnc3n2C)cn1 [Compound 269] , please.
-- reply < 50 nM

-- ask Same lookup for CC(C)CNC(=O)c1nc2c(N3CCC4(CC3)C(=O)Nc3ccccc34)ncnc2n1C1CC1 [Compound 176] , please.
-- reply 50 to 250 nM

-- ask Now the molecule Cc1c(-c2nc3c(N4CCC5(CC4)C(=O)Nc4ccccc45)ncnc3n2C)cnn1C [Compound 393]
-- reply 500 to 1500 nM

* * *

Exercise: for every item that follows, state its recorded IC50.
- target_of_assay: PI3K delta (Homo sapiens)
- experiment_description: Luciferase-coupled chemiluminescence kinase assay (ATP consumption, KinaseGlo)

-- ask Entry Cn1cc(-c2nc3c(N4CCN(S(=O)(=O)c5cccnc5Cl)CC4)ncnc3n2C)cn1 [Compound 390] has what IC50?
-- reply 0.5 to 1.5 µM

-- ask Consider next the compound Cn1c(C(F)(F)F)nc2c(N3CCC(n4c(=O)[nH]c5ccccc54)CC3)ncnc21 [Compound 134] in the same way.
-- reply 0.25 to 0.5 µM

-- ask Entry to check: Cn1cc(-c2nc3c(N4CCN(S(=O)(=O)c5c(Cl)cccc5Cl)CC4)ncnc3n2C)cn1 [Compound 391]
-- reply 0.25 to 0.5 µM

-- ask Okay, and CCn1cc(-c2nc3c(N4CCC(n5c(=O)[nH]c6c(F)cccc65)CC4)ncnc3n2C)cn1 [Compound 344] ?
-- reply < 0.05 µM

-- ask Continue with Cc1[nH]ncc1-c1nc2c(N3CCC(n4c(=O)[nH]c5ccccc54)CC3)ncnc2n1C [Compound 242]
-- reply < 0.05 µM

-- ask Also, Cn1cc(-c2nc3c(N4CCN(S(=O)(=O)c5ccc(F)cc5F)CC4)ncnc3n2C)cn1 [Compound 383] please.
-- reply 0.5 to 1.5 µM

-- ask Again, but for Cn1c(-c2ccc(C(F)(F)F)nc2)nc2c(N3CCC(n4c(=O)[nH]c5ncccc54)CC3)ncnc21 [Compound 315]
-- reply < 0.05 µM

-- ask Moving on to the next compound: Cn1c(-c2ccncc2)nc2c(N3CCC(n4c(=O)[nH]c5ccccc54)CC3)ncnc21 [Compound 266]
-- reply 0.25 to 0.5 µM

-- ask Note, next up: Cn1c(C(=O)NC2CC2)nc2c(N3CCC4(CC3)C(=O)Nc3ccccc34)ncnc21 [Compound 14]
-- reply 0.05 to 0.25 µM

-- ask What about this compound? Cn1c(C(=O)NCC2CC2)nc2c(N3CCC(n4c(=S)[nH]c5ccccc54)CC3)ncnc21 [Compound 169]
-- reply 0.05 to 0.25 µM

-- ask Also check CCCCNC(=O)c1nc2c(N3CCC4(CC3)C(=O)Nc3ccccc34)ncnc2n1CC [Compound 162]
-- reply < 0.05 µM

-- ask And the next one, Cn1c(-c2cncc(Br)c2)nc2c(N3CCC(n4c(=O)[nH]c5ccccc54)CC3)ncnc21 [Compound 285] ?
-- reply < 0.05 µM

-- ask Moving on to Cn1cc(-c2nc3c(N4CCN(S(=O)(=O)c5cccc(C#N)c5)CC4)ncnc3n2C)cn1 [Compound 382]
-- reply 0.25 to 0.5 µM

-- ask Same question, CCCCCNC(=O)c1nc2c(N3CCC(n4c(=O)[nH]c5ccccc54)CC3)ncnc2n1C [Compound 70] this time
-- reply 0.25 to 0.5 µM

-- ask Then this compound: CCn1c(C(=O)NC2COC2)nc2c(N3CCC4(CC3)C(=O)Nc3ccccc34)ncnc21 [Compound 226]
-- reply < 0.05 µM

-- ask What do we get for COc1cc(C)ccc1S(=O)(=O)N1CCN(c2ncnc3c2nc(-c2cnn(C)c2)n3C)CC1 [Compound 385] ?
-- reply 0.5 to 1.5 µM
